What LD0 was measured for each of the following?
System: mice
Assay: acute oral toxicity in mice
Settings: oral administration, mice
Answers are plain numbers, in mg/kg.

Reference set (3 entries):
molecule: CCCCCCCCCCCCCCCC(=O)OCC(C)(C)[N+](C)(C)C.[I-] [Example 3]
LD0 / mg/kg: 800
//
molecule: CCCCCCCCCCCCCC(=O)OCC(C)(C)[N+](C)(C)C.[I-] [Example 1]
LD0 / mg/kg: 600
//
molecule: CCCCCCCCCCCC(=O)OCC(C)(C)[N+](C)(C)C.[I-] [Example 2]
LD0 / mg/kg: 500

Q: I would be grateful if you could share the reported LD0 for CCCCCCCC(=O)OCC(C)(C)[N+](C)(C)C.[I-] [Example 4] .
Result: 800

----------
Quick note: these are MIC numbers for system: Mycobacterium ranae

Worked cases, MIC given:
molecule: CCCCCCCCCCCCCC(=O)OCC(C)(C)[N+](C)(C)C.[I-] [Example 1]
meas_value: 1 to 5 µg/mL
//
molecule: CCCCCCCC(=O)OCC(C)(C)[N+](C)(C)C.[I-] [Example 4]
meas_value: 100 to 500 µg/mL
//
molecule: CCCCCCCCCCCC(=O)OCC(C)(C)[N+](C)(C)C.[I-] [Example 2]
meas_value: 1 to 50 µg/mL

// below: MIC requested for another molecule
Q: Endpoint output: MIC of CCCCCCCCCCCCCCCC(=O)OCC(C)(C)[N+](C)(C)C.[I-] [Example 3] . Value?
Result: 50 to 100 µg/mL

----------
Lab note: MIC readings collected with Escherichia coli for the following compounds.

Some compounds with recorded MIC:
smiles: CCCCCCCC(=O)OCC(C)(C)[N+](C)(C)C.[I-]
system_under_test: Escherichia coli
property_measured: MIC
meas_value: 500 to 1000 µg/mL
//
smiles: CCCCCCCCCCCCCCCC(=O)OCC(C)(C)[N+](C)(C)C.[I-]
system_under_test: Escherichia coli
property_measured: MIC
meas_value: > 1000 µg/mL
//
smiles: CCCCCCCCCCCCCC(=O)OCC(C)(C)[N+](C)(C)C.[I-]
system_under_test: Escherichia coli
property_measured: MIC
meas_value: 100 to 500 µg/mL

Q: Give the measured MIC of `CCCCCCCCCCCC(=O)OCC(C)(C)[N+](C)(C)C.[I-]` .
Result: 100 to 500 µg/mL

----------
Test system: mice
Assay: acute oral toxicity in mice
Settings: oral administration, mice
property_measured: LD100 (mg/kg)
One number for each entry, in mg/kg.

compound: CCCCCCCCCCCCCCCC(=O)OCC(C)(C)[N+](C)(C)C.[I-] [Example 3]
property_measured: LD100
meas_value: 3200

Value sought for every listed compound: LD100.
1. CCCCCCCCCCCCCC(=O)OCC(C)(C)[N+](C)(C)C.[I-] [Example 1]
2. CCCCCCCC(=O)OCC(C)(C)[N+](C)(C)C.[I-] [Example 4]

Result:
2000
1700

Q: Record CCCCCCCCCCCC(=O)OCC(C)(C)[N+](C)(C)C.[I-] [Example 2] : what is its LD100 with mice?
Result: 1700

----------
Assay: acute oral toxicity in mice
Details: mouse, in vivo, po
property_measured: LD50
The reply must contain the numeric value and, after it, the unit.

Example cases with answers are listed next.
smiles: CCCCCCCCCCCCCCCC(=O)OCC(C)(C)[N+](C)(C)C.[I-]
LD50: 1490 mg/kg

smiles: CCCCCCCCCCCCCC(=O)OCC(C)(C)[N+](C)(C)C.[I-]
LD50: 1000 mg/kg

smiles: CCCCCCCCCCCC(=O)OCC(C)(C)[N+](C)(C)C.[I-]
LD50: 900 mg/kg

Please examine the following record next.
Q: # input compound: `CCCCCCCC(=O)OCC(C)(C)[N+](C)(C)C.[I-]` ; wanted: its LD50
Result: 1160 mg/kg

----------
Tested on: Pasteurella pseudotuberculosis
Assay: microbe, parasite or virus in culture
Assay type: cell-based
Settings: Yersinia pseudotuberculosis, read-out: Inhibition Endpoint
property_measured: MIC

compound: CCCCCCCCCCCC(=O)OCC(C)(C)[N+](C)(C)C.[I-] [Example 2]
property_measured: MIC
meas_value: 5 to 10 µg/mL

compound: CCCCCCCC(=O)OCC(C)(C)[N+](C)(C)C.[I-] [Example 4]
property_measured: MIC
meas_value: 100 to 500 µg/mL

Count: 2. Required value per item: MIC.
1. CCCCCCCCCCCCCCCC(=O)OCC(C)(C)[N+](C)(C)C.[I-] [Example 3]
2. CCCCCCCCCCCCCC(=O)OCC(C)(C)[N+](C)(C)C.[I-] [Example 1]

Result:
["100 to 500 µg/mL", "1 to 5 µg/mL"]
